System: HCC-2998 colon
Experiment: NCI tumour cell line growth inhibition, 48 h

# compound, TGI
measured = [
    ("Cc1ccc(S(=O)(=O)c2c(O)c3ccc(O)c(C)c3oc2=O)cc1", "> 100 µM"),
    ("COc1ccc(C2=C(Cl)C(=O)O/C2=C\\c2ccc(OC)c(Br)c2)cc1Cl", "> 100 µM"),
    ("CCOC(=O)c1c(NC(=O)c2ccc(C(C)C)cc2)sc2c(CN(C)C)c(O)ccc12", "3.51 µM"),
    ("NCCCCNCCCNC(=O)CNC(=O)CC(O)C(N)CCCC(NC(=O)C(CN)NC(=O)C(O)CNC(=O)CC(N)c1ccc(O)cc1)C(=O)O (stereo not given)", "> 10 µM"),
    ("CCCCCCCCCCCCNC(=O)CCC(NC(=O)c1ccc(N(C)Cc2cnc3nc(N)nc(N)c3n2)cc1)C(=O)NCCCCCCCCCCCC (stereo not given)", "> 100 µM"),
]

* * *

Test system: CCRF-CEM leukemia
Assay: NCI tumour cell line growth inhibition, 48 h

# compound, TGI
measured = [
    ("C[N+]1(CCN=C=NC2CCCCC2)CCOCC1", "> 100 µM"),
    ("COC(=O)C1=CCON(c2ccccc2)C1c1ccccc1 (stereo not given)", "> 100 µM"),
    ("CNC(=S)NNc1ncnc2c1c(-c1ccc(Cl)cc1)cn2-c1ccc(C)cc1", "> 100 µM"),
    ("NC(N)=NS(=O)(=O)c1ccc(NC(=O)c2cccc3c(NNc4ccc(S(N)(=O)=O)cc4)c4ccccc4nc23)cc1", "> 100 µM"),
    ("CC[C@H](C)[C@H](NC(=O)c1cnccn1)C(=O)N(C)[C@H](C[C@@H](OC(C)=O)c1nc(C(=O)N[C@@H](Cc2ccccc2)C[C@H](C)C(=O)OC)cs1)C(C)C", "> 33.3 µM"),
]

* * *

Test system: ACHN renal
Test: NCI tumour cell line growth inhibition, 48 h
Peptide text beside a SMILES is read from it. * marks the point of attachment. X26 = Clc1c(Cl)c(Cl)c(O*)c(Cl)c1Cl; Boc = CC(C)(C)OC(=O)*; OBn = c1ccc(CO*)cc1; Bn = c1ccc(C*)cc1

# molecule, qualifier, TGI [µM]
rows = [
    ("O=C1NC(=S)NC(=O)C1C(c1ccc(Cl)cc1)C1C(=O)NC(=S)NC1=O", ">", 100),
    ("O=C1c2ccccc2N2OC3(N4CCCC4)CCCC3C12c1ccccc1 (stereo not given)", ">", 100),
    ("O=C(OC12CC3CC(CC(C3)C1)C2)c1ccc(NCc2cc(O)ccc2O)cc1", "=", 2.35),
    ("O=C(O)c1cc[c]([Hg][S]c2ncnc3nc[nH]c23)cc1", "=", 23.7),
    ("COc1ccc(Cl)cc1Nc1nc(C(F)(F)F)ccc1C(=O)NN", ">", 100),
    ("CC1(C)C(=O)C(O)=CC2C1=CCC1C2(C)C(=O)CC2(C)C(C(C)(O)C(=O)CC(O)C(C)(C)O)C(O)CC12C (stereo not given)", "=", 16.2),
    ("CSc1ccc(C2=Nn3c(nnc3-c3ccc(F)c(Cl)c3)SC2)cc1", "=", 33.6),
    ("O=C(O)C1=NN(c2ccc(S(=O)(=O)O)cc2)C2(C1)C(Cl)C(=O)N2c1nc2ccccc2s1 (stereo not given)", "=", 30.7),
    ("CCN1CCN(Cc2ccc(NC(=O)Nc3ccc(-n4ccc5c(NC(=O)c6ccccc6)nccc54)cc3)cc2C(F)(F)F)CC1", "=", 2.11),
    ("CN(C)c1ccc(/C=c2/c3ccccc3n3c2cc(-c2ccccc2)[n+]3C)cc1", "=", 2.33),
    ("CC(=O)N(C)c1ccc(Nc2ccnc3ccc4nn(C)nc4c23)cc1", "=", 30.2),
    ("CCCCCCCCCCCCNC(=O)CCC(NC(=O)c1ccc(N(C)Cc2cnc3nc(N)nc(N)c3n2)cc1)C(=O)NCCCCCCCCCCCC (stereo not given)", ">", 100),
    ("CCCCCCCCCCCCOCCOCCOCCOCCOCCOCC(=O)NC(Cc1ccccc1)C(=O)Oc1ccc([N+](=O)[O-])cc1 (stereo not given)", ">", 100),
    ("COc1cc(OC)cc(Oc2nc3cc(F)c(F)cc3nc2-c2ccccc2)c1", ">", 100),
    ("COC(=O)c1nc(NN)[nH]c(=O)c1CCCCCc1c(C(=O)OC)[nH]c(NN)cc1=O", ">", 100),
    ("C[C@H](c1ccccc1)N1C(=O)[C@@H](OCc2ccccc2)[C@H]1[C@H](COC(=O)COCc1ccccc1)OCc1ccccc1", ">", 100),
    ("CC(O)CNC1=CC(=O)C(=O)c2ccccc21 (stereo not given)", "=", 35.6),
    ("O=C1/C(=C/c2ccc(Cl)cc2)CCCc2ccc(F)cc21", "=", 68.5),
    ("N#CC(C#N)SCc1ccccc1", ">", 100),
    ("Oc1c(OCc2nnc(CCCCCCCCc3nnc(COc4ccc5ccccc5c4O)o3)o2)ccc2ccccc12", ">", 100),
    ("CC(C)(C)OC(=O)NCC(C#N)CNC(=O)OC(C)(C)C", ">", 100),
    ("Cc1ccc2c(c1C)CC1(Cc3c(C)ccc(C)c3C1=O)C2=O (stereo not given)", ">", 100),
    ("Cc1cnc2[nH]c(-c3cccc(F)c3)cc(=O)c2c1", ">", 100),
    ("Clc1ccccc1NN(Cc1ccccn1)c1ccccc1Cl", ">", 100),
    ("CC(C)CC(NC(=O)C(CCC(=O)OCc1ccccc1)NC(=O)OC(C)(C)C)C(=O)NC(COCc1ccccc1)C(=O)NC(Cc1ccccc1)C(=O)Oc1c(Cl)c(Cl)c(Cl)c(Cl)c1Cl (stereo not given) (Boc-E(OBn)LS(Bn)F-X26; configuration not given here)", "=", 57.8),
    ("S=C(N/N=C/c1cc(Cl)cc(Cl)c1)NC12CC3CC(CC(C3)C1)C2", "=", 8.05),
    ("Nc1c(C(=O)Nc2ccc([As](=O)(O)O)cc2)cnc2nnnn12", ">", 100),
    ("CON(C)C(=O)C(C)NC(=O)OCc1ccccc1 (stereo not given)", ">", 100),
    ("CC(=O)N(CCN)CCN", ">", 100),
    ("CCC1(Br)C(=O)NC(=O)N(C2CC(O)C(CO)O2)C1N=[N+]=[N-] (stereo not given)", ">", 100),
    ("Clc1cc(C(c2cc(Cl)sc2Cl)c2cc(Cl)sc2Cl)c(Cl)s1", ">", 100),
    ("C=C1CC(COc2ccc3c(C)c(C)c(=O)oc3c2C)(c2ccccc2)OC1=O (stereo not given)", "=", 7.51),
    ("COC(=O)c1ccc2c(c1)C(NC(C)=O)CCc1cc(OC)c(OC)c(OC)c1-2 (stereo not given)", ">", 100),
    ("CCN(CC)c1ccc(NC(=S)NN(C)C)cc1", ">", 10),
    ("O=C(CCc1nc(=S)[nH][nH]1)NC12CC3CC(CC(C3)C1)C2", ">", 100),
    ("Nc1nncc2[nH]cnc12", ">", 100),
    ("Cc1cc([N+](=O)[O-])c(C)c2c1[nH]c1ccc(/C(CCC3CCCC3)=N\\N)cc12", "=", 28.8),
    ("CC(C)=CCC12Cc3ccc(O)cc3C(C(C)CN1)C2C (stereo not given)", ">", 100),
    ("COc1ccc2c(c1)-c1c(c3cc(OC)ccc3n1CCN(C)C)CC2", "=", 28.4),
    ("O=[N+]([O-])c1ccc(N=Nc2c(O)[nH]c3ccc([N+](=O)[O-])cc23)cc1", "=", 76.4),
]

* * *

Tested on: MCF7 breast
Assay: NCI tumour cell line growth inhibition, 48 h
Parameter: TGI. Scope: all listed entries.

# compound, test target, qualifier, TGI / µM
measured = [
    ("N/C(=N\\OC(=O)c1ccccc1)C(C(=O)NOC(=O)c1ccccc1)C1CCCCC1 (configuration not stated)", "MCF7 breast", "=", 23),
    ("Nc1c(S(N)(=O)=O)cc(S(N)(=O)=O)cc1S(N)(=O)=O", "MCF7 breast", ">", 100),
    ("O=C1/C(=C/c2ccc(Cl)cc2)CCCc2ccc(F)cc21", "MCF7 breast", ">", 100),
    ("CCCCCCc1cc2cc(-c3csc(-c4ccc(OC)cc4)n3)c(=O)oc2cc1O", "MCF7 breast", "=", 53.2),
    ("C=C1C(=O)O[C@@H]2C[C@@]3(C)CC(=O)C=C(C)[C@@H]3C[C@H]12", "MCF7 breast", "=", 14.9),
    ("CCOC(=O)C1(C(=O)OCC)CCC(C(OC)OC)C(CC(=O)OC)C1 (configuration not stated)", "MCF7 breast", ">", 10),
    ("NCCCCNCCCNC(=O)CNC(=O)CC(O)C(N)CCCC(NC(=O)C(CN)NC(=O)C(O)CNC(=O)CC(N)c1ccc(O)cc1)C(=O)O (configuration not stated)", "MCF7 breast", ">", 10),
    ("CC1(C)CCC(C)(C)c2cc(C(=O)Nc3ccc(C(=O)O)cc3)ccc21", "MCF7 breast", ">", 100),
    ("O=[N+]([O-])/C(Cl)=C(/C(Cl)=C(Cl)Cl)N1CCCCC1", "MCF7 breast", "=", 17.4),
    ("COc1ccc(OC/C(N=Cc2ccncc2)=N/NC(=O)c2ccncc2)cc1", "MCF7 breast", ">", 100),
    ("CC1(C)O[C@H]2OC3CCC(=O)CC3(O)[C@H]2O1 (some centres not stated)", "MCF7 breast", ">", 100),
    ("CCOc1snc(C(Cl)(Cl)Cl)c1Cl", "MCF7 breast", "=", 78.9),
    ("COc1cc(OC)cc(Oc2nc3cc(F)c(F)cc3nc2-c2ccccc2)c1", "MCF7 breast", ">", 100),
    ("CC(=O)N(C)c1ccc(Nc2ccnc3ccc4nn(C)nc4c23)cc1", "MCF7 breast", "=", 46.6),
    ("COc1cc(-c2oc3ccccc3c(=O)c2O)cc(OC)c1OC", "MCF7 breast", ">", 100),
    ("COc1ccc(C2=C(Cl)C(=O)O/C2=C\\c2ccc(OC)c(Br)c2)cc1Cl", "MCF7 breast", "=", 46.9),
    ("O=C1CS/C(=N/N=C/c2cn(Cc3ccc(Cl)cc3Cl)c3ccccc23)N1", "MCF7 breast", "=", 61.6),
    ("Cc1cc(S(=O)(=O)Nc2n[nH]c(Nc3ccccc3)n2)c(SCC(=O)O)cc1Cl", "MCF7 breast", ">", 100),
    ("CCN(CCCCCCCCCCN1CC(=O)N(CCCCCCCCCCN(CC)Cc2ccccc2OC)CC1=O)Cc1ccccc1OC", "MCF7 breast", "=", 2.81),
    ("CCN(CC)c1ccc(NC(=S)NN(C)C)cc1", "MCF7 breast", ">", 10),
    ("Cn1nc2c(c1N)Cc1c(nn(C)c1N)-c1ccccc1-2", "MCF7 breast", ">", 100),
    ("NS(=O)(=O)c1ccc(N2Cc3cc(Cl)ccc3OC3=C2C(=O)N(CC2CCCCC2)C3=O)cc1", "MCF7 breast", "=", 1.9),
    ("COc1cc2[nH]c(=O)c3cc(-c4ccccc4)cc4c(Cl)nc(c1OC)c2c43", "MCF7 breast", "=", 7.71),
    ("O=CN1CCN(C(=O)c2ccco2)C1=S", "MCF7 breast", "=", 10.6),
    ("CC(O)CNC1=CC(=O)C(=O)c2ccccc21 (configuration not stated)", "MCF7 breast", "=", 48.7),
    ("COc1ccc2c(c1)-c1c(c3cc(OC)ccc3n1CCN(C)C)CC2", "MCF7 breast", "=", 28.9),
    ("CC(C)c1ccc2nc3ccc(C(=O)NCCN(C)C)cn3c(=O)c2c1", "MCF7 breast", "=", 30.8),
    ("CC1(C)OC[C@@H](C[C@H](O)COCc2ccccc2)O1", "MCF7 breast", ">", 100),
    ("C[C@]12CC[C@@H]3c4ccc(O)c([N+](=O)[O-])c4CC[C@H]3[C@@H]1CC[C@@H]2NS(=O)(=O)c1ccc(C(F)(F)F)cc1", "MCF7 breast", "=", 4.23),
    ("Cc1ccc2c(c1C)CC1(Cc3c(C)ccc(C)c3C1=O)C2=O (configuration not stated)", "MCF7 breast", ">", 100),
    ("CC[N+]1(C)CCC(O)(c2ccc(C)cc2)C(C(=O)c2ccc(C)cc2)C1 (configuration not stated)", "MCF7 breast", "=", 36.9),
    ("Cc1nnc2n1-c1ccccc1N(Cc1ccccc1)CC2", "MCF7 breast", ">", 100),
    ("COC(=O)C1=C(OC(=O)c2ccc(Cl)cc2)C(C(=O)OC)[C@@]2(O)[C@@H](C(=O)OC)C(c3ccccc3C(F)(F)F)C[C@@H]1[C@@H]2C(=O)OC (some centres not stated)", "MCF7 breast", "=", 87.5),
    ("CNC(=O)Nc1ccc(-c2nc(N3CCOCC3)nc3c2cnn3C2CCOCC2)cc1", "MCF7 breast", ">", 100),
    ("Clc1ccccc1NN(Cc1ccccn1)c1ccccc1Cl", "MCF7 breast", ">", 100),
    ("COc1ccc(C(=O)N2c3ccccc3Sc3ccccc32)c(F)c1", "MCF7 breast", ">", 100),
    ("Cc1ccc(S(=O)(=O)c2c(O)c3ccc(O)c(C)c3oc2=O)cc1", "MCF7 breast", ">", 100),
    ("O=C(OC12CC3CC(CC(C3)C1)C2)c1ccc(NCc2cc(O)ccc2O)cc1", "MCF7 breast", "=", 8.54),
    ("COC(=O)C1=C(C)NC(C)=C(C(=O)OC)C1c1cccc(N=O)c1", "MCF7 breast", "=", 40.1),
    ("COc1cc2c3c(cc(Cl)nc3c1OC)C(=O)C(=O)N2", "MCF7 breast", "=", 4.58),
    ("C[C@H](c1ccccc1)N1C(=O)[C@@H](OCc2ccccc2)[C@H]1[C@H](COC(=O)COCc1ccccc1)OCc1ccccc1", "MCF7 breast", ">", 100),
    ("CC1(C)N=C(N)N=C(N)N1c1ccc(CCc2ccccc2)c(Cl)c1", "MCF7 breast", "=", 13),
]
